Target protein (sequence): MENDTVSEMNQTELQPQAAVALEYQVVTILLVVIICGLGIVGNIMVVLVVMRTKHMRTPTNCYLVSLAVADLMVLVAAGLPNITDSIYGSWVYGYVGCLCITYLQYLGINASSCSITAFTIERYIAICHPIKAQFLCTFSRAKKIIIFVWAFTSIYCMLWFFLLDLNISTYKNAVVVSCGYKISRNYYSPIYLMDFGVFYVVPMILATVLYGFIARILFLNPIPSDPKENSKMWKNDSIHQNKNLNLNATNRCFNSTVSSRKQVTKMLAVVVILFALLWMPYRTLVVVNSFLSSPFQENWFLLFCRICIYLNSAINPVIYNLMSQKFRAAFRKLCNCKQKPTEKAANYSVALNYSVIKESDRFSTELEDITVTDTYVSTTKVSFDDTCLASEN
Measured Parameter: Ki

[Q] Param item = NC(=O)C1CCCN1C(=O)C(Cc1cnc[nH]1)NC(=O)[C@@H]1CCC(=O)C1 (stereo partly specified) ; retrieve measured Ki.
[A] > 10 µM

* * *

pKi: −log10 of the molar value.
Measured Parameter: pKi

[Q] Find the measured pKi: item NC(=O)C1CCCN1C(=O)C(Cc1cnc[nH]1)NC(=O)[C@@H]1CCC(=O)C1 (stereo partly specified) , target or system Pro-thyrotropin-releasing hormone-B (Xenopus sp., UniProt Q00643).
[A] < 5.00
